Source: patent US10907134B2

experiment: Substrate specificities of KAZ mutants (ZZ-fused, crude enzyme), h-CTZ; format: biochemical; conditions: 1 μg substrate, integrated for 60 seconds
property: Relative Luminescence Activity h-CTZ Int.
Please reply with the value in numeric form only.

Example molecules with recorded Relative Luminescence Activity h-CTZ Int.:
- molecule: "KAZ-A54I: KAZ with single amino acid substitution A54I, SEQ ID NO: 6 (protein) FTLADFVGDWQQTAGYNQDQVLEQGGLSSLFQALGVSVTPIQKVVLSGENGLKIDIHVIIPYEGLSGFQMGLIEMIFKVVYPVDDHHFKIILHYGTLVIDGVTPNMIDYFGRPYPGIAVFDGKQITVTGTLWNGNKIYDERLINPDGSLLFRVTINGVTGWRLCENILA"
  result number: 6.9
- molecule: "KAZ-Y138I: KAZ with single amino acid substitution Y138I, SEQ ID NO: 8 (protein) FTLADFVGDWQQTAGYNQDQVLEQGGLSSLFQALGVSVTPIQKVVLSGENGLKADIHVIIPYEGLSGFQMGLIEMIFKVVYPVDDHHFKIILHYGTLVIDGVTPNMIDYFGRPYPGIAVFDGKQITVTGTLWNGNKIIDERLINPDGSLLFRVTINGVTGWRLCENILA"
  result number: 3.0

Now turn to the next molecule.
[Q] Reported Relative Luminescence Activity h-CTZ Int., molecule KAZ-V44I: KAZ with single amino acid substitution V44I, SEQ ID NO: 4 (protein) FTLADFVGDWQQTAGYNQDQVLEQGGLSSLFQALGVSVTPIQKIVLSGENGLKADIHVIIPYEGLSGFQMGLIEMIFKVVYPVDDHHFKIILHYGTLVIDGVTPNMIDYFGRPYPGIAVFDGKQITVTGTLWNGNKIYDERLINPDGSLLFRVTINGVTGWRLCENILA : ____
[A] 2.2
